Protocol description: Pharmacokinetic assay in Balb/c mice (plasma and brain tissue)
Format: in vivo
Condition summary: mouse, po; plasma, 5 mg/kg p.o., male Balb/c mice; read-out: Half-life t1/2 (converted)
Documented half-life across a set of molecules
Lab book: enter the figure in h, no units written.

Worked examples, 3 molecules total:
CC[C@@H]1C[C@H](C(=O)Cn2ccc(C(F)(F)F)n2)[C@@]2(C)CC[C@H]3[C@@H](CC[C@@H]4C[C@](C)(O)CC[C@@H]43)[C@H]12 | 1.66
C[C@@]1(O)CC[C@H]2[C@H](CC[C@@H]3[C@@H]2CC[C@@]2(C)[C@H]3[C@@H]3C[C@@H]3[C@@H]2C(=O)COc2cnc(C(F)(F)F)nc2)C1 | 2.21
C[C@@]1(O)CC[C@H]2[C@H](CC[C@@H]3[C@@H]2CC[C@@]2(C)[C@H]3[C@@H]3C[C@@H]3[C@@H]2C(=O)Cn2cc(C#N)cn2)C1 | 0.54

Which half-life reading was recorded for the molecule C[C@@]1(O)CC[C@H]2[C@H](CC[C@@H]3[C@@H]2CC[C@@]2(C)[C@H]3[C@@H]3C[C@@H]3[C@@H]2C(=O)Cn2cc([N+](=O)[O-])cn2)C1 ?
1.19
